// normalized growth lookup, one value per entry
Assay: chemical genetic growth profiling, strain panel (AID 1159580);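 also: tested at 20 µM; growth read once vehicle control cultures reached saturation at 30 °C; 1 = growth at the plate median or of vehicle wells; lower values mean less growth of the strain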
Settings: S. cerevisiae deletion strains, growth OD, locus YPL241C, strain CIN2, active compounds read low
Out of some 5,500 compounds screened, about 2,000 (36%) were called active. About 18% were inconclusive and are not listed. This is one part of the list.
Just the number.

C/C(=N/O)c1ccn(S(=O)(=O)c2ccc(Cl)cc2)c1; 1

Task item: Look at this molecule and give its reported normalized growth. C/C(=N/O)c1ccc2c(c1)C(C)(C)CCC2(C)C
Reply: 0.953

Task item: Look at this molecule and give its reported normalized growth. O=[N+]([O-])c1cc(Cl)c(Sc2ccccc2)cc1Sc1ccccc1
Reply: 1.01

Task item: Look at this molecule and give its reported normalized growth. O=C(O)c1ccccc1Sc1c(C(=O)O)cc([N+](=O)[O-])cc1[N+](=O)[O-]
Reply: 1.08

Task item: Look at this molecule and give its reported normalized growth. CC(=O)c1ccc(Sc2ccccn2)c([N+](=O)[O-])c1
Reply: 1.01

Task item: Look at this molecule and give its reported normalized growth. FC(F)(F)c1cc(-c2ccc(Cl)cc2)nc2cc(C3CC3)nn12
Reply: 1.02

* * *

Assay: chemical genetic growth profiling, strain panel (AID 1159580)
Conditions: S. cerevisiae deletion strains, growth OD, locus YDR150W, strain NUM1, active compounds read low
Hit rate of the full screen: of about 5,500 compounds, about 2,000 (36%) were called active. About 18% were inconclusive and are not listed. Some of the results follow.
Measurement Kind: normalized growth
Just the number.

Answered cases to consult:
CCC[C@@H]1C[C@@H](C(=O)N[C@H]([C@H]2O[C@H](SC)[C@H](O)[C@@H](O)[C@H]2O)[C@H](C)O)N(C)C1; 1
Nc1nc(SCc2ccc([N+](=O)[O-])cc2)c2ncn([C@@H]3O[C@H](CO)[C@H](O)C3O)c2n1 (stereo partly drawn); 0.994
CC(=O)NS(=O)(=O)c1ccc(N)cc1; 0.994
O=C(/C=C/c1ccccc1)c1c(O)cc(O)cc1O; 1.02
CNC(=O)Oc1ccccc1OC(C)C; 1.02
COc1ccc(-c2c(O)c3c(OC)c4c(cc3oc2=O)OC(C)(C)C=C4)cc1; 0.936

Task item: Look at this molecule and give its reported normalized growth. O=[N+]([O-])c1ccc(NCCCCCO)nc1
Reply: 0.975

Task item: Look at this molecule and give its reported normalized growth. COc1ccc(NS(=O)(=O)c2ccc(N)cc2)nn1
Reply: 1.02

* * *

// normalized growth lookup, one value per entry
Experiment: chemical genetic growth profiling, strain panel (AID 1159580)
Conditions: S. cerevisiae deletion strains, growth OD, locus YDR335W, strain msn5, active compounds read low
Out of some 5,500 compounds screened, about 2,000 (36%) were called active. Not shown: some 18% with an inconclusive outcome. This is one part of the list.

Answered cases to consult:
CN1CCN(C2=Nc3cc(Cl)ccc3Nc3ccccc32)CC1; 0.977 (inactive)
CCCCCC/C=C\CCCCCCCc1cccc(O)c1C(=O)O; 0.975 (inactive)
Cn1c(=O)[nH]c2nc[nH]c2c1=O; 0.987 (inactive)
CC(NC(C)(C)C)C(=O)c1cccc(Cl)c1 (stereo not given); 1 (inactive)
ClC1C(Cl)C(Cl)C(Cl)C(Cl)C1Cl (stereo not given); 1 (inactive)
Cn1c(=O)c2c(ncn2C)n(C)c1=O; 0.969 (inactive)
CC(=O)OCC1=C(C(=O)O)N2C(=O)[C@@H](NC(=O)CSc3ccncc3)[C@H]2SC1; 1.03 (inactive)
Cn1cnc2c1c(=O)[nH]c(=O)n2C; 0.976 (inactive)
C=C[C@H]1CN2CC[C@H]1C[C@H]2[C@H](O)c1ccnc2ccccc12; 0.993 (inactive)
CC12CCC(O)CC1CCc1ccccc12 (stereo not given); 0.972 (inactive)

Task item: Look at this compound and give its reported normalized growth. O=C(c1ccccc1)c1ccc2n1CCC2C(=O)O (stereo not given)
Reply: 0.988 (inactive)

Task item: Look at this compound and give its reported normalized growth. Cc1cc2nc3c(=O)[nH]c(=O)nc-3n(CC(O)C(O)C(O)CO)c2cc1C (stereo not given)
Reply: 1.02 (inactive)

Task item: Look at this compound and give its reported normalized growth. COc1ccc(CC(=O)c2ccc(O)cc2O)cc1
Reply: 0.975 (inactive)

Task item: Look at this compound and give its reported normalized growth. COc1cc2c(cc1OC)C(C)NCC2 (stereo not given)
Reply: 0.971 (inactive)

* * *

Assay: chemical genetic growth profiling, strain panel (AID 1159580)
Settings: S. cerevisiae deletion strains, growth OD, locus YER155C, strain BEM2 (second series), active compounds read low
Among all 5,500 compounds or so, about 2,000 (36%) were called active. About 18% were inconclusive and are not listed. The list shows a part of the results.
We label by threshold. Values of normalized growth strictly beneath 1 are criterion met. Values of 1 and up are criterion not met.

COc1ccc(CC(=O)c2ccc(O)cc2O)cc1; criterion met
CC(=CC1CCC(C)C2CCC(C)=C12)C(=O)O (stereo not given); criterion met

Task item: I wonder whether Cn1c(=O)[nH]c2ncn(C)c2c1=O has normalized growth below 1. Can you tell?
Reply: criterion met

Task item: I wonder whether CNC(=O)Oc1ccccc1OC(C)C has normalized growth below 1. Can you tell?
Reply: criterion met

Task item: I wonder whether CC(=CC1CCC(C)C2C1=C(C)CC2O)C(=O)O (stereo not given) has normalized growth below 1. Can you tell?
Reply: criterion not met

Task item: I wonder whether CCCCN(CC)c1c([N+](=O)[O-])cc(C(F)(F)F)cc1[N+](=O)[O-] has normalized growth below 1. Can you tell?
Reply: criterion not met

Task item: I wonder whether CC12CCC(OC(=O)c3ccccc3)CC1CCc1ccccc12 (stereo not given) has normalized growth below 1. Can you tell?
Reply: criterion met

Task item: I wonder whether O=C1C=CC(=O)c2ccccc21 has normalized growth below 1. Can you tell?
Reply: criterion met

Task item: I wonder whether O=c1c(O)c(-c2ccccc2)oc2cc(O)ccc12 has normalized growth below 1. Can you tell?
Reply: criterion met

Task item: I wonder whether COc1ccc(NS(=O)(=O)c2ccc(N)cc2)nn1 has normalized growth below 1. Can you tell?
Reply: criterion met

Task item: I wonder whether COc1ccc([C@@H](C)C(=O)c2ccc(O)cc2O)cc1 has normalized growth below 1. Can you tell?
Reply: criterion met

* * *

Experiment: chemical genetic growth profiling, strain panel (AID 1159580);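 also: tested at 20 µM; growth read once vehicle control cultures reached saturation at 30 °C; 1 = growth at the plate median or of vehicle wells; lower values mean less growth of the strain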
Conditions: S. cerevisiae deletion strains, growth OD, locus YIL125W, strain kgd1
The whole screen tested about 5,500 compounds, of which about 2,000 (36%) were called active. Another 18% or so got no clear call; they are omitted. Rule as the data show it: active = normalized growth mostly below about 0.91 (no sharp cut-off); inconclusive = no clear call, values can overlap the other calls; inactive = mostly above about 0.92. The list shows a part of the results.
Give your call using only these classes: class 1 (active), class 0 (inactive)

Check out these entries, answers already filled in.
O=C1c2ccccc2C(=O)c2ccccc21; class 0
O=C1C(=O)c2ccccc2C(O)=C1C1CCC(c2ccc(Cl)cc2)CC1 (configuration not stated); class 0
CC(C)c1cc2c(c(O)c1O)[C@@]1(C(=O)O)CCCC(C)(C)C1CC2 (some centres not stated); class 0

Please examine the following record next.
Task item: For CC(C)N1C(=O)c2ccccc2NS1(=O)=O , which call appears in the assay record?
Reply: class 0

* * *

// normalized growth lookup, one value per entry
Test: chemical genetic growth profiling, strain panel (AID 1159580);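 also: tested at 20 µM; growth read once vehicle control cultures reached saturation at 30 °C; 1 = growth at the plate median or of vehicle wells; lower values mean less growth of the strain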
Details: S. cerevisiae deletion strains, growth OD, locus YML032C, strain rad52, active compounds read low
Among all 5,500 compounds or so, about 2,000 (36%) were called active. Not shown: some 18% with an inconclusive outcome. The list shows a part of the results.
Just the number.

Answered cases to consult:
CC(C)[C@@H]1CC[C@@H](C)CC1=O; 1.01
C=C(C)C1Cc2c(ccc3c(=O)c4c(oc23)COc2cc(OC)c(OC)cc2-4)O1 (stereo not given); 1.01
O=c1c(O)cccc2cc(O)c(O)c(O)c12; 0.522

Task item: Look at this compound and give its reported normalized growth. C[C@]12[C@H](O)CC3C(CC[C@@H]4C[C@@H](O)CC[C@]34C)[C@@]1(O)CC[C@@H]2C1=CC(=O)OC1 (stereo not given in full)
Reply: 0.998

Task item: Look at this compound and give its reported normalized growth. Cn1c(=O)[nH]c2nc[nH]c2c1=O
Reply: 0.991

Task item: Look at this compound and give its reported normalized growth. COc1ccccc1OCC(O)COC(N)=O (stereo not given)
Reply: 1

Task item: Look at this compound and give its reported normalized growth. CNC(=O)N(C)c1nnc(C(C)(C)C)s1
Reply: 1.01

Task item: Look at this compound and give its reported normalized growth. COc1cc2cccc(OC)c(=O)c2c(OC)c1OC
Reply: 1.03

* * *

Assay: chemical genetic growth profiling, strain panel (AID 1159580);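 also: tested at 20 µM; growth read once vehicle control cultures reached saturation at 30 °C; 1 = growth at the plate median or of vehicle wells; lower values mean less growth of the strain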
Details: S. cerevisiae deletion strains, growth OD, locus YJL092W, strain hpr5
Hit rate of the full screen: of about 5,500 compounds, about 2,000 (36%) were called active. Not shown: some 18% with an inconclusive outcome. Rule as the data show it: active = normalized growth mostly below about 0.91 (no sharp cut-off); inconclusive = no clear call, values can overlap the other calls; inactive = mostly above about 0.92. Some of the results follow.
Give your call using only these classes: Y = active, N = inactive

CC(=O)O[C@@H]1C2CC[C@@H]3C1(C[C@@H](O)[C@@]1(O)[C@@H](C[C@H](O)C1(C)C)[C@]3(C)O)C[C@@]2(C)O (some centres undefined); N
Oc1cccc2cccnc12; Y
O=C(O)c1cccnc1C(=O)O; N
O=C(CCc1ccc(O)cc1)c1c(O)cc(O)cc1O; N

Task item: For CC(=O)c1ccc[nH]1 , which call appears in the assay record?
Reply: N

Task item: For COc1ccc(NS(=O)(=O)c2ccc(N)cc2)nn1 , which call appears in the assay record?
Reply: N

Task item: For O=C(/C=C/c1ccc(O)cc1)c1ccccc1O , which call appears in the assay record?
Reply: Y

Task item: For O=C(O)CC[N+](=O)[O-] , which call appears in the assay record?
Reply: N

Task item: For CC(=O)OC1CCC2(O)CC1(C)CCC1C2CC1(C)C (centres undefined) , which call appears in the assay record?
Reply: N

Task item: For O=C(c1ccccc1)c1ccc2n1CCC2C(=O)O (centres undefined) , which call appears in the assay record?
Reply: N

Task item: For CC(=O)OC[C@@]1(O)C[C@@]23CCC4c5ccoc5CC[C@]4(C)C2CC[C@@H]1C3 (some centres undefined) , which call appears in the assay record?
Reply: N
